TARGET ENTITY: LPA1 (Homo sapiens, UniProt Q92633)
Construct: ProLink (β-galactosidase enzyme-donor fragment)
Sequence (Q92633 whole entry, the tested form may be a part): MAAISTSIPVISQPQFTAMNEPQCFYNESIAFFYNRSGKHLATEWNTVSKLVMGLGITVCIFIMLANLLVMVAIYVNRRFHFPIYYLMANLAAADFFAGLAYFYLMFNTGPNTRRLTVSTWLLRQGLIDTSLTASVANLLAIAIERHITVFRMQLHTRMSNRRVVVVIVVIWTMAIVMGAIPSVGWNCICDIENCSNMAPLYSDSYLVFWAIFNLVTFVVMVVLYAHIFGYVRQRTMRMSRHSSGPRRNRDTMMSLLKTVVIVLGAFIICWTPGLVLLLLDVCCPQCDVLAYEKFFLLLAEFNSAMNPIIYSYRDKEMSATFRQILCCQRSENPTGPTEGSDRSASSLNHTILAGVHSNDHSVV
PROCEDURE TEXT: LPA1 calcium flux assay (LPA1 functional antagonist assay)
COND: PathHunter CHO-K1 EDG2 β-Arrestin cells, calcium indicator dye, stimulated with EC80 concentration of LPA, FLIPR
pIC50: −log10 of the molar value.
QUANTITY MEASURED: pIC50

Some solved entries appear below for comparison.
compound="CCCc1ccc(=O)n(Cc2c(-c3ccc(N4CC[C@@H]([C@H](C)C(=O)O)C4)c(CC)n3)nnn2C)c1 [Example 13]" observed_result="6.30 to 7.00"
compound="CCCc1ccc(=O)n(Cc2c(-c3ccc(C4COCC(CC(=O)O)C4)c(C)n3)nnn2C)c1 (stereo not shown) [Example 29]" observed_result="5.30 to 6.30"
compound="Cc1nc(-c2nnn(C)c2COc2nccc(C3CCC3)n2)ccc1N1CC[C@H](CC(=O)O)C1 [Example 5]" observed_result="6.30 to 7.00"
compound="CCCc1ccc(=O)n(Cc2c(-c3ccc(C4CCOC(CC(=O)O)C4)c(CC)n3)nnn2C)c1 (stereo not shown) [Example 31]" observed_result="5.30 to 6.30"
compound="CCCc1ccc(=O)n(Cc2c(-c3ccc(N4CC[C@@H](C(C)(C)C(=O)O)C4)c(C)n3)nnn2C)c1 [Example 15]" observed_result="> 7.00"

State recorded pIC50 for all listed compounds.
1. CCCc1ccc(=O)n(Cc2c(-c3ccc(C4CN(CC(=O)O)CC(F)(F)C4)c(C)n3)nnn2C)c1 (single isomer, unassigned) [Example 40]
2. CCc1nc(-c2nnn(C)c2COc2nccc(C3CCC3)n2)ccc1N1CC[C@H]([C@@H](C)C(=O)O)C1 [Example 9]

["2.00 to 5.30", "> 7.00"]

###

Give measured IC50 for each item. Keep answers brief.
TARGET ENTITY: LPA1 (Homo sapiens)
Construct: ProLink (β-galactosidase enzyme-donor fragment)
PROCEDURE TEXT: LPA1 calcium flux assay (LPA1 functional antagonist assay)
COND: PathHunter CHO-K1 EDG2 β-Arrestin cells, calcium indicator dye, stimulated with EC80 concentration of LPA, FLIPR

compound="CCCc1ccc(=O)n(Cc2c(-c3ccc(N4CC[C@@H](C(CC)C(=O)O)C4)c(CC)n3)nnn2C)c1 (single isomer, unassigned) [Example 18]" target_entity="LPA1 (Homo sapiens)" quantity_measured=IC50 observed_result="5 to 10000 µM"
compound="CCCc1ccc(=O)n(Cc2c(-c3ccc(C4CN(CC(=O)O)CC(F)(F)C4)c(C)n3)nnn2C)c1 (single isomer, unassigned) [Example 41]" target_entity="LPA1 (Homo sapiens)" quantity_measured=IC50 observed_result="0.1 to 0.5 µM"
compound="CCc1nc(-c2nnn(C)c2COc2cc(-n3cccn3)ncn2)ccc1C1CCOC(CC(=O)O)C1 (stereo not drawn)" target_entity="LPA1 (Homo sapiens)" quantity_measured=IC50 observed_result="0.1 to 0.5 µM"
compound="CCc1nc(-c2nnn(C)c2COc2nccc(C3CCC3)n2)ccc1[C@@H]1CCC[C@@H](CC(=O)O)O1 (single isomer, unassigned)" target_entity="LPA1 (Homo sapiens)" quantity_measured=IC50 observed_result="< 0.1 µM"

State recorded IC50 for all listed compounds.
1. CCc1nc(-c2nnn(C)c2COc2nccc(C3CCC3)n2)ccc1C1CCOC(CC(=O)O)C1 (stereo not drawn) [Example 32]
2. Cc1nc(-c2nnn(C)c2COc2nccc(C3CCC3)n2)ccc1N1CC[C@@H](CC(=O)O)C1
3. CCCc1ccc(=O)n(Cc2c(-c3ccc(N4CC[C@H](C(C)(C)C(=O)O)C4)c(CC)n3)nnn2C)c1
4. CCc1nc(-c2nnn(C)c2COc2nccc(C3CCC3)n2)ccc1N1CC[C@@H]([C@@H](C)C(=O)O)C1

< 0.1 µM
< 0.1 µM
0.5 to 5 µM
< 0.1 µM

State recorded IC50 for all listed compounds.
1. CCCc1ccc(=O)n(Cc2c(-c3ccc(C4CC(CC(=O)O)CCO4)c(C)n3)nnn2C)c1 (stereo not drawn)
2. CCc1nc(-c2nnn(C)c2COc2nccc(C3CCC3)n2)ccc1C1CCOC(CC(=O)O)C1 (single isomer, unassigned) [Example 35]
3. CCCc1ccc(=O)n(Cc2c(-c3ccc(C4CCCC(CC(=O)O)C4)c(C)n3)nnn2C)c1 (stereo not drawn)
4. CCCc1ccc(=O)n(Cc2c(-c3ccc(N4CC[C@@H]([C@@H](C)C(=O)O)C4)c(CC)n3)nnn2C)c1

0.5 to 5 µM
< 0.1 µM
0.1 to 0.5 µM
0.5 to 5 µM
